Biological target: ACE (Rattus norvegicus, UniProt P47820)
Construct: by the ACE contained in the rat serum; from tissue; host or cells: rat serum
Sequence (P47820 36-1238 limits assumed): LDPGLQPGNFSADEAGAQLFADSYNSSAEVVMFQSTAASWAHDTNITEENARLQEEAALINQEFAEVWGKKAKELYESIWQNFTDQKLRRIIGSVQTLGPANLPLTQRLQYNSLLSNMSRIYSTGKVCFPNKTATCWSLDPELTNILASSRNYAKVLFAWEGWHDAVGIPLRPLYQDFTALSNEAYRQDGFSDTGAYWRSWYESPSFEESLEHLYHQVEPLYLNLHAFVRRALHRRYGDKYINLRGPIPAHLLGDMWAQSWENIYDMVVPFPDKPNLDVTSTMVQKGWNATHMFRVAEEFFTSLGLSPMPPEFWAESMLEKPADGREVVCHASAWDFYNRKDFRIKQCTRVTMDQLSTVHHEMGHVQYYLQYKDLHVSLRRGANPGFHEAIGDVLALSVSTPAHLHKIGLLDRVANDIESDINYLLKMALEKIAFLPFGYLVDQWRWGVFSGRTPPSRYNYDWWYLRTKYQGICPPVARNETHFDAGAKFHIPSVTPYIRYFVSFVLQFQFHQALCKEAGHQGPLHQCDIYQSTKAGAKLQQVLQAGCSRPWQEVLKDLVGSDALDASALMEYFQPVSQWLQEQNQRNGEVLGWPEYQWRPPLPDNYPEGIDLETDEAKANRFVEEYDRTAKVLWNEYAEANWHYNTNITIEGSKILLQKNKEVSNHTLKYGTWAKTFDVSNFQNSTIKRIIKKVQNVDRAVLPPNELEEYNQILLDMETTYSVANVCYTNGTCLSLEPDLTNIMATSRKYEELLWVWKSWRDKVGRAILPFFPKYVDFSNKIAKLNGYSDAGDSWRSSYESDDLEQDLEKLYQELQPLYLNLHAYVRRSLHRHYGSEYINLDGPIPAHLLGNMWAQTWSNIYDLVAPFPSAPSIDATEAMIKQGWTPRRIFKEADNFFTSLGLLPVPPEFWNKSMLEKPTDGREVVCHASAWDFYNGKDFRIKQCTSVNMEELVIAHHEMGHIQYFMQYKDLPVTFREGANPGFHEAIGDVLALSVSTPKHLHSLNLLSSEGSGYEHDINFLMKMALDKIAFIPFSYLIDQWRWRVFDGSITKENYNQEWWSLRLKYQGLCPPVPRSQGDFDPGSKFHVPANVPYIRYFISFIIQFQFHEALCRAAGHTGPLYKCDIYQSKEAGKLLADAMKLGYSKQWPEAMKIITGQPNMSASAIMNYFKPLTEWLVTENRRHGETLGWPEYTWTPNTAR
Test: ACE inhibition: hydrolysis of the ippuril-glycil-glycine artificial substrate by the ACE contained in rat serum
Type: biochemical
quantity: IC50 (nM)

I = CN(C(=O)[C@@H]1CCCC[C@H]1C(=O)O)C(Cc1ccccc1)C(=O)NO (relative stereo) [Example 30]
II = O=C(NO)C(Cc1ccccc1)NC(=O)[C@H]1CCCC[C@H]1C(=O)O (relative stereo) [Example 18]
III = CN(CC(=O)NO)C(=O)[C@@H]1CCCC[C@@H]1C(=O)O [Example 9]
IV = O=C(NO)C(CNC(=O)[C@H]1CCCC[C@H]1C(=O)O)Cc1ccccc1 (stereo partly shown) [Example 3]
Kindly order the items shown according to IC50, from the highest value down. Respond with an ordered listing of the labels, as requested. IV, II, I, III
(IV: 3500 nM, II: 400 nM, I: 30 nM, III: 3.5 nM)
